Values from paper PMC9482650

Target: T1, PARD3B_1, Q8TEW8
T1 sequence (Q8TEW8 196-299, limits assumed, looked up): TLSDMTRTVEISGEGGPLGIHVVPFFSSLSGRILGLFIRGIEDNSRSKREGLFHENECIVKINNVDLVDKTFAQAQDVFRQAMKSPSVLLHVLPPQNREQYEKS
Test: holdup assay
Design: key: below the threshold = too weak to quantify, mostly under pKd 3.1 to 4
Conditions: plain residues with an end cap or a label only (N-terminal biotin on a linker: ado-ado)
readout: pKd

{"columns": ["binder", "value_measured"],
 "data": [
  ["PDGQCTVTEV [RNF146, Q9NTX7]", "below the threshold"],
  ["LPHGHSTTRV [NLGN4X, Q8N0W4]", "below the threshold"],
  ["TPPAAKKSRI [BAZ1A, Q9NRL2]", "below the threshold"],
  ["PEYLGLDVPV [ERBB2, P04626]", "below the threshold"],
  ["VDSTVKVWTC [TRAF7, Q6Q0C0]", 4.42],
  ["QHKTQLQTLI [BPIFA2, Q96DR5]", 4.22]
]}
